Taken from patent US12336991B2.

Experimental System: FXIIa (Homo sapiens)
Sequence (P00748 373-615 limits assumed): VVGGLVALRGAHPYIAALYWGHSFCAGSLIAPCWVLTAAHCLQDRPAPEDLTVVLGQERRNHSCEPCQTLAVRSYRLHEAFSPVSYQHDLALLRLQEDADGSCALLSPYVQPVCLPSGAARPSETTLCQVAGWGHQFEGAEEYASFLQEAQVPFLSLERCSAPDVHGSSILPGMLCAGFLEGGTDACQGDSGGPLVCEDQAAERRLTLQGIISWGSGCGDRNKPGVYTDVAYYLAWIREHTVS
Sequence (P00748 20-372 partner limits assumed): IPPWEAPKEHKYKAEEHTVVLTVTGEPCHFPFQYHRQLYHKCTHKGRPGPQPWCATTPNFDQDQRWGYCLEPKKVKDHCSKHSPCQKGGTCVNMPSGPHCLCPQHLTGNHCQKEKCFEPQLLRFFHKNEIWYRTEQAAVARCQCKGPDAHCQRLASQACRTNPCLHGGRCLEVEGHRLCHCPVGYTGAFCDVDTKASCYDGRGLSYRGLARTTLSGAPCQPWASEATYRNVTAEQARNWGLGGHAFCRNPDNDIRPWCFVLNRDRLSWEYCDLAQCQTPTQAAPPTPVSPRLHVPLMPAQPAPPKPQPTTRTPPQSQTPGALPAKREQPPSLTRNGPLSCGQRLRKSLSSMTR
Measurement Name: Ki

| Compound | Data Value |
| --- | --- |
| NCc1ccc(CNC(=O)[C@@H]2C[C@@H](Cc3ccc(Cl)cc3)CN2C(=O)[C@H](N)CCc2ccccc2)cc1 | 200 to 2000 nM |
| CC(=O)N(Cc1ccccc1)[C@H]1C[C@@H](C(=O)NCc2ccc3c(c2)nnn3C)N(C(=O)[C@H](N)CCc2ccccc2)C1 | > 2000 nM |
| COc1ccc(C[C@@H]2C[C@@H](C(=O)NCc3ccc4c(c3)nnn4C)N(C(=O)[C@H]3C[C@@H](c4ccncc4)CN3)C2)cc1 | > 2000 nM |
| COc1ccc(C[C@@H]2C[C@@H](C(=O)NCc3cc4ccncc4o3)N(C(=O)[C@H](N)CCC(=O)N3CCCC3)C2)cc1 | 200 to 2000 nM |
| Cn1nnc2cc(CNC(=O)[C@@H]3C[C@H](c4ccccc4Oc4ccccc4)CN3C(=O)[C@H](N)CCc3ccccc3)ccc21 | > 2000 nM |
| COc1cc(CNC(=O)[C@@H]2C[C@H](c3ccccc3)CN2C(=O)[C@H](N)CCc2ccccc2)ccc1CN | 200 to 2000 nM |
| COc1ccc(C[C@@H]2C[C@@H](C(=O)NCc3ccc4c(c3)nnn4C)N(C(=O)[C@H]3C[C@@H](c4ccccc4OC(F)(F)F)CN3)C2)cc1 | 200 to 2000 nM |
| COc1ccc(C[C@@H]2C[C@@H](C(=O)NCc3ccc4c(c3)nnn4C)N(C(=O)[C@H](N)CCC(=O)N3C4CCC3CNC4)C2)cc1 | < 200 nM |
| NCc1ccc(CNC(=O)[C@@H]2C[C@H](O)CN2C(=O)[C@H](N)CCc2ccccc2)cn1 | > 2000 nM |
| Cn1nnc2cc(CNC(=O)[C@@H]3C[C@H](NCc4ccccc4)CN3C(=O)[C@H](N)CCc3ccccc3)ccc21 | > 2000 nM |
| CCOc1ccc(C[C@@H]2C[C@@H](C(=O)NCc3ccc4c(c3)nnn4C)N(C(=O)[C@H]3C[C@@H](c4ccccc4)CN3)C2)cc1 | 200 to 2000 nM |
| COc1ccc(C[C@@H]2C[C@@H](C(=O)NCc3ccc4c(c3)nnn4C)N(C(=O)[C@H](N)CCC(=O)N3CCC[C@@H]3C#N)C2)cc1 | < 200 nM |
| COc1ccc(C[C@@H]2C[C@@H](C(=O)NCc3ccc4c(c3)nnn4C)N(C(=O)[C@H](N)CCC(=O)N3CC[C@H](F)C3)C2)cc1 | < 200 nM |

###

pKi for assorted molecules
Experimental System: FXIIa (Homo sapiens, UniProt P00748)
Sequence (P00748 373-615 limits assumed): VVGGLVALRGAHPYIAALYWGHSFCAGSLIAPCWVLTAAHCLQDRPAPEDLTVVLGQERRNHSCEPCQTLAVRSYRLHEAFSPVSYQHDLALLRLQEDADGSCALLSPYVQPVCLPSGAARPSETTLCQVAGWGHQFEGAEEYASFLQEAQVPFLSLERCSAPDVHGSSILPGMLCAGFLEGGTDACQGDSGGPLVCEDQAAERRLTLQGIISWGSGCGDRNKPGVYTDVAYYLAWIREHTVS
Sequence (P00748 20-372 partner limits assumed): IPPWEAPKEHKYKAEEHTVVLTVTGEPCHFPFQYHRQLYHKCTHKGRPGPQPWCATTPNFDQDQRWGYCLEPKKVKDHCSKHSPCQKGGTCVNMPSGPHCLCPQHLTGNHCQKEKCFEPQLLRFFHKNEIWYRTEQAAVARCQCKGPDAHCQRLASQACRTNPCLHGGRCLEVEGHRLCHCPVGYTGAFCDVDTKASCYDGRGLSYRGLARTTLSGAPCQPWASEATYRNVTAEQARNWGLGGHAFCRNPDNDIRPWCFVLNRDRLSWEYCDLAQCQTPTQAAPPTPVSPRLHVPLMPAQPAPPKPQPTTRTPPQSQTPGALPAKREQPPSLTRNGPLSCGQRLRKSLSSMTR
pKi: −log10 of the molar value.
Measurement Name: pKi

| Molecule | Measurement Name | Data Value |
| --- | --- | --- |
| CNC(=O)N[C@H]1C[C@@H](C(=O)NCc2ccc3c(c2)nnn3C)N(C(=O)[C@H](N)CCc2ccccc2)C1 | pKi | < 5.70 |
| Cn1nnc2cc(CNC(=O)[C@@H]3C[C@H](Cc4cccc(F)c4)CN3C(=O)[C@H](N)CCC(=O)N3CCCC3)ccc21 | pKi | 5.70 to 6.70 |
| Cn1nnc2cc(CNC(=O)[C@@H]3C[C@@H](Cc4ccccc4F)CN3C(=O)[C@H]3C[C@@H](c4ccccc4)CN3)ccc21 | pKi | < 5.70 |
| NCc1ccc(CNC(=O)[C@@H]2CCCN2C(=O)[C@H](N)CCc2cccnc2)cc1 | pKi | < 5.70 |
| Cn1ccnc1CC1C[C@@H](C(=O)NCc2ccc3c(c2)nnn3C)N(C(=O)[C@H](N)CCC(=O)N2CCCC2)C1 (stereo partly drawn) | pKi | 5.70 to 6.70 |
| COc1ccc(C[C@@H]2C[C@@H](C(=O)NCc3ccc4c(c3)nnn4C)N(C(=O)[C@H]3CC(c4cnccc4OC)CN3)C2)cc1 (stereo partly drawn) | pKi | < 5.70 |

###

Experimental System: FXa (Homo sapiens)
Sequence (P00742 235-488 limits assumed): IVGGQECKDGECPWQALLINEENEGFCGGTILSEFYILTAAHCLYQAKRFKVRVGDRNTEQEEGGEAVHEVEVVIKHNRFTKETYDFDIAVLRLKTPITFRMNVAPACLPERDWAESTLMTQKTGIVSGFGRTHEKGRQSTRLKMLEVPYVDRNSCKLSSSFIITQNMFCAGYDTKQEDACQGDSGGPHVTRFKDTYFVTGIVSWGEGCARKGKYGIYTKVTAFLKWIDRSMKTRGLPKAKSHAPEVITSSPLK
Sequence (P00742 41-179 partner limits assumed): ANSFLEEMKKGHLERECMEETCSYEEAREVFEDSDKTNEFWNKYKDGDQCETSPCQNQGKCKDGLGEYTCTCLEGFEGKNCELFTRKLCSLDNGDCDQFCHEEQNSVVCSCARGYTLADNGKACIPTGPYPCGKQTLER
Assay Comment: Determination of selectivity: FXa inhibition, chromogenic substrate S2765 assay
Format: biochemical
Applied Conditions: fold selectivity for FXIIa over FXa
Text: The activities of the compounds of the invention have been determined in vitro using the following assays protocols for the screening of activity of FXIIa and other proteases. […] Paranitroaniline (pNA) is released from the peptide following catalyses by the proteolytic enzyme; the absorbance increases and can be monitored at 405 nm. […] Where [Substrate] denotes the concentration of substrate used in the assay and Km is the determined value of each enzyme with its own substrate. […]

| Compound | FXa (human)/FXIIa alpha (human) |
| --- | --- |
| COc1ccc(CC2C[C@@H](C(=O)NCc3ccc4c(c3)nnn4C)N(C(=O)[C@H](N)CCC(=O)N3CCCC3)C2)cc1Cl (stereo partly shown) [Example M05298] | ∘∘∘ |
| Cn1nnc2cc(CNC(=O)[C@@H]3CCCN3C(=O)[C@H](N)CCC(=O)N3CCCC3)ccc21 [Example M05308] | ∘∘ |
| COc1ccc(C[C@@H]2C[C@@H](C(=O)NCc3ccc4c(c3)nnn4C)N(C(=O)C3NCCc4cc(Cl)ccc43)C2)cc1 (stereo partly shown) [Example M05430] | ∘∘∘ |
| COC(=O)N[C@H]1C[C@@H](C(=O)NCc2ccc3c(c2)nnn3C)N(C(=O)[C@H](N)CCc2ccccc2)C1 [Example M05207] | ∘∘ |
| NCc1ccc(CNC(=O)[C@@H]2C[C@H](O)CN2C(=O)[C@H](N)CCc2ccccc2)cn1 [Example M05054] | ∘∘ |
| Cn1nnc2cc(CNC(=O)[C@@H]3CC(Cc4ccnc(F)c4)CN3C(=O)[C@H](N)CCC(=O)N3CCCC3)ccc21 (stereo partly shown) [Example M05315] | ∘∘ |
| Cn1nnc2cc(CNC(=O)[C@@H]3CC(Cc4cccc(C#N)c4)CN3C(=O)[C@H](N)CCC(=O)N3CCCC3)ccc21 (stereo partly shown) [Example M05319] | ∘∘∘ |
| COc1ccc(C[C@@H]2C[C@@H](C(=O)NCc3ccc4c(c3)nnn4C)N(C(=O)[C@H]3CC(c4ccc(F)cc4)CN3)C2)cc1 (stereo partly shown) [Example M05340] | ∘∘ |
| COc1ccc(C[C@@H]2C[C@@H](C(=O)NCc3cc4cnccc4[nH]3)N(C(=O)C3C[C@@H](C(=O)N4CCCC4)CCN3)C2)cc1 (stereo partly shown) [Example M00966] | ∘∘∘ |
| CC(=O)N[C@H]1C[C@@H](C(=O)NCc2ccnc(N)c2)N(C(=O)[C@H](N)CCc2ccccc2)C1 [Example M05141] | ∘ |
| Nc1nccc2cc(CNC(=O)[C@@H]3C[C@H](C(F)(F)F)CN3C(=O)[C@H](N)CCC(=O)N3CCCC3)ccc12 [Example M05265] | ∘ |
| Cn1nc(Cl)c2cc(CNC(=O)[C@@H]3C[C@@H](Cc4cccnc4)CN3C(=O)[C@H](N)CCC(=O)N3CCCC3)ccc21 [Example M05224] | ∘∘∘ |
| COc1ccc(C[C@@H]2C[C@@H](C(=O)NCc3ccc4c(c3)nnn4C)N(C(=O)[C@H]3CC(c4cccnc4F)CN3)C2)cc1 (stereo partly shown) [Example M05418] | ∘∘∘ |
